The measured values listed here are drawn from patent US20230295324A1.

So I've got a bunch of binders here, and I need their Maximum OD values.
Target: T1, human OX40 protein (Acro biosystem, #OX0-H5224) (human, UniProt P43489 29-216)
T1 construct: Bought recombinant protein
T1 sequence (looked up): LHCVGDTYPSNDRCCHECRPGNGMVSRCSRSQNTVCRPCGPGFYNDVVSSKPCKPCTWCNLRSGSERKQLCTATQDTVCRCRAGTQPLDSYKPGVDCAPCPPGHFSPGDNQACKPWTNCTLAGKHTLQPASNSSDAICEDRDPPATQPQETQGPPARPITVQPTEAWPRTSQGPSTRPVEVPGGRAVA
Assay: ELISA, coated human OX40 protein
Express your answer in OD, writing the number without its unit.

What the record says about PR002059 (antibody, human IgG1, V domains shown, no light chain; also called anti-OX40 HCAb antibody) VH: EVQLLESGGGLVQPGGSLRLSCVVSGLTFSSYAMSWVRQAPGKGREWVSAISGRGGSTFYADSVRGRFTISRDNSKNTLYLQMNSLRAEDTAVYYCANGMTGSTDVDYWGQGTLVTVSS : Maximum OD is 2

Maximum OD for PR002073 (antibody, human IgG1, V domains shown, no light chain; also called anti-OX40 HCAb antibody) VH: EVQLVESGGGLVQPGGSLRLSCAASGFTFSSYAMSWVRQAPGKGLEWVSAISGGSGSTFYADSVRGRFTISRDNSKNTLYLQMNSLRAEDTAVYYCADGVTGTDFDFWGQGTLVTVSS is 2.38

The reported Maximum OD of the binder PR002060 (antibody, human IgG1, V domains shown, no light chain; also called anti-OX40 HCAb antibody) VH: EVQLLESGGGLVQPGGSLRLSCAASGFTFSDYAMSWVRQAPGKGLEWVSAISGRGGSTYYADSVRGRFTISRDNSKNTLYLQMTSLRAEDTAVYYCANGMTGTTDVDYWGQGTLVTVSS was 2.09

The binder PR002058 (antibody, human IgG1, V domains shown, no light chain; also called anti-OX40 HCAb antibody) VH: EVQLLESGGGLVQPGGSLRLSCAASGFTFSSYAMSWVRQAPGKGLEWVSAISGGSGSTFYADSVRGRFTISRDNSKNTLYLQMNSLRAEDTAVYYCADGVTGTDFDFWGQGTLVTVSS showed Maximum OD equal to 1.94

Reported Maximum OD ( PR002066 (antibody, human IgG1, V domains shown, no light chain; also called anti-OX40 HCAb antibody) VH: EVQLLESGGGLVQPGGSLRLSCIASGFTFSSYAMSWVRQAPGKGLEWVSAISGRGGSTFYADSVRGRFTISRDNSKNTLYLQMNSLRAEDTAVYYCANGMTGTTDVDYWGQGTQVTVSS ) = 2.47
